test system: PAK6; conditions: concentration: 1 μM, replicates: in singlicate; n = 1;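 also: KINOMEscan kinase panel screen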
Known %Inh of a selection of compounds
State the value, then name its unit.

See these solved cases before continuing.
Compound	Experimental System	%Inh
Cc1ccccc1CC(=O)N1CCc2cc(-c3cn(C)c4ncnc(N)c34)ccc21 [GSK2603346]	PAK6	0%
c1ccc(Oc2ccc(Nc3ccnc4cc(-c5ccc(CN6CCCCC6)o5)ccc34)cc2)nc1 [GW567143]	PAK6	0%
O=C1NC(=O)C(c2ccccc2Cl)=C1Nc1cccc(Cl)c1 [SB-342409]	PAK6	7%
CS(=O)(=O)c1cccc(CNc2nc(Nc3ccc4c(c3)CCC(=O)N4)ncc2C(F)(F)F)c1	PAK6	0%
CC(=O)Nc1cn2nc(Oc3cccc(NC(=O)c4cccc(C(F)(F)F)c4)c3)ccc2n1	PAK6	12%

Input: Recorded %Inh for COc1cc(Nc2nccc(N3CCC(NC(=O)Nc4ccc5c(c4)OCO5)C3)n2)cc(OC)c1OC (centres unmarked) [GSK1379766] , please?
Output: 0%

Input: Another compound to look at: Cc1cccc(Nc2nc(NCCN)ncc2C(N)=O)c1 [GSK1292139]
Output: 76%

Input: Another compound to look at: COC(=O)Nc1nc2ccc(Oc3ccc(NC(=O)Nc4cc(C(F)(F)F)ccc4F)cc3)cc2[nH]1.Cl [GW654607]
Output: 0%

====

Known %Inh of a selection of molecules
system: EPHB6; conditions: concentration: 1 μM, replicates: in singlicate; n = 1
Use % as the unit, but write only the number.

See these solved cases before continuing.
Molecule	Uom	Experimental Value
Cc1nn2c(=O)cc(N3CCO[C@H](C)C3)nc2n1Cc1cccc(Cl)c1Cl [GSK2373693]	%	3
Cc1cccc(Nc2nc(N[C@H]3CCCC[C@H]3N)ncc2C(N)=O)c1.Cl [GSK986310]	%	17
N#Cc1cnc2cc(-c3cnc(CNCCN4CCOCC4)s3)ccc2c1Nc1ccc(Oc2ccccc2)cc1 [GW664114]	%	21
Cl.Cl.NC(CNC(=O)c1cc(Br)c(-c2ccnc3[nH]ccc23)s1)c1ccccc1 (centres unmarked) [GSK1322949]	%	75
Nc1ncc(-c2cn[nH]c2)c2scc(-c3ccc4c(c3)CCN4C(=O)Cc3ccccc3)c12 [GSK2593067]	%	97.6

Input: Recorded %Inh for COc1cccc(C2=C(Nc3cccc(O)c3)C(=O)NC2=O)c1 [SB-390771] , please?
Output: 49

Input: Another molecule to look at: CC(C)NCC(Cc1ccccc1)NC(=O)c1cc(Br)c(-c2ccnc3[nH]ccc23)s1.Cl.Cl (centres unmarked) [GSK1383281]
Output: 6

Input: Another molecule to look at: O=C(O)C(F)(F)F.O=c1[nH]ccc2nc(N[C@@H]3CCNC3)nc(Nc3cc(Cl)cc(Cl)c3)c12 [GSK2188764]
Output: 17

====

tested on: PIK3C2G; conditions: concentration: 1 μM, replicates: in singlicate; n = 1
Measurement Type: %Inh (%)
Use % as the unit, but write only the number.

See these solved cases before continuing.
Compound	Uom	Experimental Value
Cc1ccc(NC(=O)c2ccnc(N3CCCCC3)c2)cc1-c1ccc(C(=O)NCC2CC2)cc1	%	0
O=C(Nc1n[nH]c2nc(-c3ccccc3O)ccc12)C1CC1	%	0
CS(=O)(=O)c1cccc(CNc2nc(Nc3ccc4c(c3)CCC(=O)N4)ncc2C(F)(F)F)c1	%	9

Input: Could you share what %Inh was measured for CN(c1ccc2c(c1)nc(NCc1ccccc1)n2C)c1ccnc(Nc2ccc(CS(C)(=O)=O)cc2)n1.Cl , tested on PIK3C2G?
Output: 0

Input: Another compound to look at: COc1cccc(C2=C(Nc3cccc(O)c3)C(=O)NC2=O)c1
Output: 0

Input: Another compound to look at: Fc1cc(Cl)ccc1Nc1ccnc2cc(-c3ccc(CN4CCOCC4)o3)ccc12
Output: 0

Input: Another compound to look at: Nc1cccc(-c2ccc3c(N)n[nH]c3c2)c1
Output: 0

Input: Another compound to look at: CCOc1nccc(-c2c(-c3ccc(F)cc3)ncn2C2CCNCC2)n1
Output: 1
